system: MCF7 breast; test: NCI tumour cell line growth inhibition, 48 h; in the data active = GI50 below about 0.43 µM; inactive = the rest
Write down one outcome, taken from active, inactive

>>> class("C=CCn1c(SCC(=O)Nc2ccc(C(=O)/C=C/c3cc(OC)c(OC)c(OC)c3)cc2)nnc1-c1cc(OC)c(OC)c(OC)c1")
"inactive"
>>> class("[Cu].c1ccc2c(c1)C1=NC2=NC2=NC(=NC3=NC(=NC4=NC(=N1)c1ccccc14)c1ccccc13)c1ccccc12")
"inactive"
>>> class("Cc1cc(NC(=O)NCCCOc2ccc(N3C(N)=NC(N)=NC3(C)C)cc2Cl)ccc1S(=O)(=O)F")
"inactive"

Entry COC1C(OC(=O)/C=C/C=C/C=C/C=C/C(=O)O)CCC2(CO2)C1C1(C)OC1CC=C(C)C (centres undefined) : call = ?
active

Entry Nc1nc(N)c2cc(S(=O)(=O)c3cccc(C(F)(F)F)c3)ccc2n1 : call = ?
inactive
